Values were extracted from patent US20170298096A1.

# measured.on: T1, His-tagged P3028 (human, also: His-tag, terminus and sequence not given here)
# T1 construct: used in solution in the PEPSCAN (rampo) ELISA; also called PGE73; His-tag-P3028; not shown: His tag
# T1 peptide: VFDEFKPLVEEPQNLIK
# assay.comment: PEPSCAN ELISA (rampo)
No end group written: not given here.
Let's look at some binders and their measured rampo score relative to the P28R control sample.

1) LKLDTFFVKLSLFTER [SEQ ID NO 274] = ≥ 98 % of P28R control
2) KKLDTFFVKLSLFTET [SEQ ID NO 392] = ≥ 98 % of P28R control
3) KKLDTFSVKLSLFTER [SEQ ID NO 323] = ≥ 98 % of P28R control

Attention now shifts to the item below.
Short answer for KKLDTFFVKLSQFTER [SEQ ID NO 355] : rampo score relative to the P28R control sample was ≥ 98 % of P28R control
